- condition-info: 303.15 K; 101.33 kPa; Liquid
reported-metric: mass density (kg/m3)
Record the value in kg/m3, omitting the unit from your answer.

- molecule: "CCCNCCC"
  mass density [kg/m3]: 731.21
- molecule: "CCCCN(CCCC)CCCC"
  mass density [kg/m3]: 770.21
- molecule: "C1COCCO1"
  mass density [kg/m3]: 1022.3
- molecule: "ClC(Cl)(Cl)Cl"
  mass density [kg/m3]: 1574.78
- molecule: "ClC(Cl)Cl"
  mass density [kg/m3]: 1470.64

Request: Please give the documented mass density of Clc1ccccc1
Response: 1095.49

Request: Output mass density of CCCCN
Response: 728.65

Request: Kindly indicate its recorded mass density. Item: CCOC(C)=O [ethyl acetate]
Response: 888.42

Request: Kindly indicate its recorded mass density. Item: CCCN(CCC)CCC
Response: 749.15

Request: Consider the molecule CCN(CC)CC . State its measured mass density.
Response: 718.44

Request: Entry CCCCOC(C)=O [butyl ethanoate] needs its mass density filled in; supply it.
Response: 871.28

Request: Quickly give me recorded mass density for CCC(C)=O
Response: 799.69

Request: Entry CCCN needs its mass density filled in; supply it.
Response: 706.1

Request: Hello, please tell me recorded mass density for this one: CCCCNCCCC
Response: 752.28

Request: Please list mass density recorded for the molecule O=[N+]([O-])c1ccccc1
Response: 1193.4

====

- condition-info: 313.15 K; 101.33 kPa; Liquid
Numbers after ± are expanded uncertainties.
Measured viscosity by item

Recorded viscosity, per entry:
- compound: "ClC(Cl)Cl [trichloromethane]"
  viscosity: "0.471 ± 0.009 mPa·s"
- compound: "CCCN [propan-1-amine]"
  viscosity: "0.313 ± 0.007 mPa·s"

Request: Report measured viscosity; entry is CCCCNCCCC [dibutylamine]
Response: 0.665 ± 0.012 mPa·s

Request: Specify viscosity for CCCCN(CCCC)CCCC [tributylamine] and stop.
Response: 0.97 ± 0.017 mPa·s

Request: Look up viscosity of ClC(Cl)(Cl)Cl [tetrachloromethane] and report it.
Response: 0.76 ± 0.013 mPa·s

Request: Give the reported value of viscosity for this record: CCCN(CCC)CCC [tripropylamine]
Response: 0.538 ± 0.01 mPa·s

Request: For the compound CCCCN [1-butanamine] , give its measured viscosity value.
Response: 0.393 ± 0.008 mPa·s

Request: Fill in viscosity for record CCCNCCC [dipropylamine]
Response: 0.423 ± 0.008 mPa·s

====

- condition-info: 303.15 K; 101.33 kPa; Liquid
Strictly below 0.6 mPa·s in viscosity: criterion met. Otherwise: criterion not met.

These solved cases illustrate the format of a correct answer.
- molecule: "CCCCNCCCC"
  group-label: "criterion not met"
- molecule: "ClC(Cl)Cl"
  group-label: "criterion met"
- molecule: "C1COCCO1"
  group-label: "criterion not met"

Request: Field: below-cutoff. Rule: recorded viscosity strictly less than 0.6 mPa·s. Subject: CCN(CC)CC
Response: criterion met

Request: viscosity under 0.6 mPa·s? Item: O=[N+]([O-])c1ccccc1
Response: criterion not met

Request: Does CCCCOC(C)=O [butyl ethanoate] have viscosity strictly under 0.6 mPa·s?
Response: criterion not met

Request: Regarding Clc1ccccc1 , kindly confirm whether its viscosity is beneath 0.6 mPa·s.
Response: criterion not met

Request: viscosity strictly < 0.6 mPa·s for this molecule? ClC(Cl)(Cl)Cl
Response: criterion not met

====

Each record here notes measured viscosity.
- condition-info: 303.15 K; 101.33 kPa; Liquid
Write the value in mPa·s as a bare number.

Request: Return viscosity for the following compound: CCCN [propan-1-amine]
Response: 0.353

Request: Specify viscosity for CCCNCCC [dipropylamine] and stop.
Response: 0.512

====

- condition-info: 303.15 K; 101.33 kPa; Liquid
Label 1 (yes) when viscosity is strictly below 0.6 mPa·s; at or above that, label 0 (no).

Solved entries:
- compound: "CCCCN"
  group-label: "1 (yes)"
- compound: "CCOC(C)=O [ethyl acetate]"
  group-label: "1 (yes)"
- compound: "CCCCN(CCCC)CCCC"
  group-label: "0 (no)"

Could you now consider this next compound?
Request: Item CCC(C)=O : viscosity beneath 0.6 mPa·s, strictly?
Response: 1 (yes)
